# Test system: Mouse tail fibroblast (MTF) cells
# assay_remarks: in vitro
# run_conditions: peptide concentration 100 μM, 200 nM siRNA; 100% represents 100% viability
Mal = not defined here

substance	unit_abbrev	% Cell Viability
PEG (10 KDa)-Mal-(Lys)10-amide ({PEG 10 kDa-Mal}-KKKKKKKKKK-NH2; reading uncertain; also: printed as PEG (10 KDa)-Mal-(Lys)10-amide) [PN934]	%	97.4
PEG (2 KDa)-Mal-(Lys-His)10-amide ({PEG 2 kDa-Mal}-KHKHKHKHKHKHKHKHKHKH-NH2; reading uncertain) [PN939]	%	99.1
PEG (2 KDa)-Mal-(Lys)10-amide ({PEG 2 kDa-Mal}-KKKKKKKKKK-NH2; reading uncertain; also: printed as PEG (2 KDa)-Mal-(Lys)10-amide) [PN933]	%	98
PEG (2 KDa)-Mal-(Lys-His)15-amide ({PEG 2 kDa-Mal}-KHKHKHKHKHKHKHKHKHKHKHKHKHKHKH-NH2; reading uncertain) [PN936]	%	28.7
PEG (2 KDa)-Mal-(Lys)20-amide ({PEG 2 kDa-Mal}-KKKKKKKKKKKKKKKKKKKK-NH2; reading uncertain) [PN926]	%	98.3
PEG (10 KDa)-Mal-Trp-(Lys)30-amide (WKKKKKKKKKKKKKKKKKKKKKKKKKKKKKK; PEG 10 kDa maleimide; C-terminal amide) [PN986]	%	93.6
PEG (10 KDa)-Mal-(Lys)15-amide ({PEG 10 kDa-Mal}-KKKKKKKKKKKKKKK-NH2; reading uncertain; also: printed as PEG (10 KDa)-Mal-(Lys)15-amide) [PN931]	%	98.4
PEG (10 KDa)-Mal-(Lys)20-amide ({PEG 10 kDa-Mal}-KKKKKKKKKKKKKKKKKKKK-NH2; reading uncertain) [PN928]	%	98.2
PEG (2 KDa)-Mal-(Lys)15-amide ({PEG 2 kDa-Mal}-KKKKKKKKKKKKKKK-NH2; reading uncertain; also: printed as PEG (2 KDa)-Mal-(Lys)15-amide) [PN930]	%	97.8

###

Measured % Cell-Uptake of individual entries
# System: Mouse tail fibroblast (MTF) cells
# assay_remarks: siRNA cell-uptake and MFI measured by FACS after peptide-mediated transfection of labeled siRNA
# Type: cell-based
# run_conditions: peptide concentration 1 μM, 200 nM labeled siRNA; % of total cells with intracellular labeled siRNA
Mal = not defined here

substance	% Cell-Uptake [%]
PEG (10 KDa)-Mal-(Lys)15-amide ({PEG 10 kDa-Mal}-KKKKKKKKKKKKKKK-NH2; reading uncertain; also: printed as PEG (10 KDa)-Mal-(Lys)15-amide) [PN931]	0.6
H-KKKKKKKKKK-NH2 [PN932, NH2-(Lys)10-amide]	0.4
PEG (10 KDa)-Mal-(Lys)20-amide ({PEG 10 kDa-Mal}-KKKKKKKKKKKKKKKKKKKK-NH2; reading uncertain) [PN928]	3.9
PEG (2 KDa)-Mal-(Lys-His)15-amide ({PEG 2 kDa-Mal}-KHKHKHKHKHKHKHKHKHKHKHKHKHKHKH-NH2; reading uncertain) [PN936]	37.7
PEG (2 KDa)-Mal-(Lys)20-amide ({PEG 2 kDa-Mal}-KKKKKKKKKKKKKKKKKKKK-NH2; reading uncertain) [PN926]	0.9
PEG (2 KDa)-Mal-(Lys)10-amide ({PEG 2 kDa-Mal}-KKKKKKKKKK-NH2; reading uncertain; also: printed as PEG (2 KDa)-Mal-(Lys)10-amide) [PN933]	0.3
PEG (10 KDa)-Mal-(Lys)10-amide ({PEG 10 kDa-Mal}-KKKKKKKKKK-NH2; reading uncertain; also: printed as PEG (10 KDa)-Mal-(Lys)10-amide) [PN934]	0.2
H-KETWWETWWTEWSQPGRKKRRQRRRPPQ-NH2 [PN183, reference compound]	9.3
PEG (10 KDa)-Mal-(Lys-His)10-amide ({PEG 10 kDa-Mal}-KHKHKHKHKHKHKHKHKHKH-NH2; reading uncertain) [PN940]	69.9
